Assay: changes in parasitized red cell lysis, either direction – P. falciparum Indochina, OD700, 3 h, PSAC antagonist project, primary screen (AID 1156)
Settings: P. falciparum-infected erythrocytes, osmotic lysis, higher = more signal, called active from +8 up or from −8 down
Measured z-score by item
Respond numerically, and do not add a unit to the figure.

molecule	z-score
CCN(CC)c1ccc(N2CC=CC34O[C@@H]5/C=C\CCCOC(=O)C5[C@H]3C(=O)N(CCCO)[C@@H]4C2=O)cc1 (stereo partly drawn)	-0.462
CCCC[C@@H]1C[C@H]1[C@@H](NC(=O)c1ccccc1)c1ccc(-c2ccccc2)cc1	1.57

Please look at the following molecule next.
Input line: Write down z-score measured for item O=C1O[C@H](c2ccccc2)[C@H](c2ccccc2)N2[C@H]1[C@@H](C(=O)Nc1nc3ccccc3s1)[C@]1(C(=O)Nc3ccc(C#CC4=CCCCC4)cc31)[C@H]2c1ccc(OCCO)cc1
Output line: 1.44
